TARGET_OR_TEST_SYSTEM: recombinant N-terminal GST-tagged human Rho kinase 1 (ROCK1, amino acids 1-535) (Homo sapiens, UniProt Q13464)
Construct: ROCK1, amino acids 1-535; purchased Invitrogen Inc. PV-3691
Sequence (Q13464 1-535): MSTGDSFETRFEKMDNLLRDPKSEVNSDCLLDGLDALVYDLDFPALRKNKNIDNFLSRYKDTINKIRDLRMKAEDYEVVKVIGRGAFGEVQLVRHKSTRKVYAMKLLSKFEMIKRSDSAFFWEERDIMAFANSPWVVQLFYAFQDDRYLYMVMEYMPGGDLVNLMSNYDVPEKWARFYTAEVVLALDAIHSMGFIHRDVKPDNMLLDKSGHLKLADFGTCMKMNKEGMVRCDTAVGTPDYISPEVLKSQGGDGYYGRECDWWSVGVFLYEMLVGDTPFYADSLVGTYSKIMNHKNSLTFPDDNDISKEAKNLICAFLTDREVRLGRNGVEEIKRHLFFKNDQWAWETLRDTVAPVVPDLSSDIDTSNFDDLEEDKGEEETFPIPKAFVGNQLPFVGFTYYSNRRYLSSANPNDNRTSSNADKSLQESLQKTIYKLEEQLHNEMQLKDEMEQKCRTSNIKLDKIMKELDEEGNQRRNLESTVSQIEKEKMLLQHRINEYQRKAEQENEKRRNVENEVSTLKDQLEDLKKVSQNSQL
TEST: In vitro Rho kinase assay (luciferase-based ATP consumption), ROCK1
Assay type: biochemical
EXPERIMENTAL_CONTEXT: recombinant GST-tagged human ROCK1, luciferase-based ATP consumption; read-out: ROCK1 IC50
pIC50: −log10 of the molar value.
Let's look at some compounds and their measured pIC50.
REPORTED_PROPERTY: pIC50

1. Cc1c(-c2ccnc(N)n2)sc2ccc(CNC(=O)c3ccc(OC(C)C)cc3)cc12    < 5.30
2. Cc1c(-c2ccnc(N)n2)sc2ccc(CNC(=O)c3ccc(Cl)cc3O)cc12    > 5.30
3. Cc1c(-c2ccnc(N)n2)sc2ccc(Cc3cccc(C#N)c3)cc12    > 5.30
4. Cc1c(-c2ccnc(N)n2)sc2ccc(CNC(=O)c3cn(C)cn3)cc12    < 5.30
5. CCC(C(=O)NCc1ccc2sc(-c3ccnc(N)n3)c(C)c2c1)c1ccccc1 (centres unmarked)    > 5.30
6. Cc1c(-c2ccnc(N)n2)sc2ccc(C(=O)O)cc12    > 5.30
7. Cc1c(-c2ccnc(N)n2)sc2ccc(CNC(=O)c3cccc(Br)n3)cc12    > 5.30
8. Cc1c(-c2ccnc(N)n2)sc2ccc(CNC(=O)C3CN(C(=O)OC(C)(C)C)CCN3)cc12 (centres unmarked)    < 5.30

###

List of IC50 values.
TARGET_OR_TEST_SYSTEM: recombinant N-terminal GST-tagged human Rho kinase 1 (ROCK1, amino acids 1-535) (Homo sapiens)
Construct: ROCK1, amino acids 1-535; purchased Invitrogen Inc. PV-3691
TEST: In vitro Rho kinase assay (luciferase-based ATP consumption), ROCK1
Type: biochemical
EXPERIMENTAL_CONTEXT: recombinant GST-tagged human ROCK1, luciferase-based ATP consumption; read-out: ROCK1 IC50
REPORTED_PROPERTY: IC50

1) COc1ccc(C(=O)NCc2ccc3sc(-c4ccnc(N)n4)c(C)c3c2)cc1 [Example 138]    > 5 µM
2) COc1cc(C(=O)NCc2ccc3sc(-c4ccnc(N)n4)c(C)c3c2)cc(OC)c1O [Example 260]    > 5 µM
3) CC(=O)Oc1ccc(C(=O)NCc2ccc3sc(-c4ccnc(N)n4)c(C)c3c2)cc1 [Example 208]    < 5 µM
4) CC(=O)Oc1ccccc1C(=O)NCc1ccc2sc(-c3ccnc(N)n3)c(C)c2c1 [Example 211]    < 5 µM
5) COc1ccc(NC(=O)c2cccc(Cc3ccc4sc(-c5ccnc(N)n5)c(C)c4c3)c2)cc1 [Example 46]    < 5 µM
6) Cc1c(-c2ccnc(N)n2)sc2ccc(Nc3ccccn3)cc12 [Example 64]    < 5 µM
7) COc1ccccc1C=CC(=O)NCc1ccc2sc(-c3ccnc(N)n3)c(C)c2c1 [Example 200]    < 5 µM
8) Cc1c(-c2ccnc(N)n2)sc2ccc(CNC(=O)c3ccc4ncccc4c3)cc12 [Example 192]    > 5 µM

###

Recorded IC50 values for a group of compounds are listed next.
TARGET_OR_TEST_SYSTEM: recombinant N-terminal GST-tagged human Rho kinase 2 (ROCK2, amino acids 1-552) (Homo sapiens)
Construct: ROCK2, amino acids 1-552; purchased Invitrogen Inc. PV3759
Sequence (O75116 1-552): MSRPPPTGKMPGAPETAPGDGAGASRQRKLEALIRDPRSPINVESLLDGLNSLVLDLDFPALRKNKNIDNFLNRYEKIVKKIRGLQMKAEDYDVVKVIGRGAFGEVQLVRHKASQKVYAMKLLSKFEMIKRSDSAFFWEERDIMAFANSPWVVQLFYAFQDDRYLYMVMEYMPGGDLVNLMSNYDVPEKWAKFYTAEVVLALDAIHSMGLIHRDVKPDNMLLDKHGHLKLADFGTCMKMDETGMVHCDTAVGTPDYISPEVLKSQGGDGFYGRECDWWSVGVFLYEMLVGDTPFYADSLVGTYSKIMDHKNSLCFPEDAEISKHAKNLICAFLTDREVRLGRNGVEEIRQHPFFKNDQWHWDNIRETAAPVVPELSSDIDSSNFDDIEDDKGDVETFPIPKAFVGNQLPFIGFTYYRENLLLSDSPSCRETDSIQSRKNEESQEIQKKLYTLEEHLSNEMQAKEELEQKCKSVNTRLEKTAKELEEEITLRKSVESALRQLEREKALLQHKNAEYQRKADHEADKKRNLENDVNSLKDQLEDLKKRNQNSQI
TEST: In vitro Rho kinase assay (luciferase-based ATP consumption), ROCK2
Format: biochemical
EXPERIMENTAL_CONTEXT: recombinant GST-tagged human ROCK2, luciferase-based ATP consumption; read-out: ROCK2 IC50
REPORTED_PROPERTY: IC50

1) Cc1c(-c2ccnc(N)n2)sc2ccc(CNC(=O)c3cccc(O)c3O)cc12 [Example 143]    < 5 µM
2) Cc1c(-c2ccnc(N)n2)sc2ccc(C(=O)N3CCSC3)cc12 [Example 471]    < 5 µM
3) Cc1c(-c2ccnc(N)n2)sc2ccc(C(=O)N3CCC(Cc4ccccc4)CC3)cc12 [Example 520]    > 5 µM
4) Cc1ccc(CNC(=O)c2ccc3sc(-c4ccnc(N)n4)c(C)c3c2)cc1C [Example 398]    > 5 µM
5) Cc1ccc(N2CCN(C(=O)c3ccc4sc(-c5ccnc(N)n5)c(C)c4c3)CC2)c(C)c1 [Example 538]    > 5 µM
6) Cc1cccc([N+](=O)[O-])c1C(=O)NCc1ccc2sc(-c3ccnc(N)n3)c(C)c2c1 [Example 215]    < 5 µM
7) CCCc1ccc(C(=O)NCc2ccc3sc(-c4ccnc(N)n4)c(C)c3c2)cc1 [Example 171]    > 5 µM
8) Cc1c(-c2ccnc(N)n2)sc2ccc(C(=O)NC3CCC(C)CC3)cc12 (centres unmarked) [Example 368]    > 5 µM
